Tested on: SF-295 CNS
Assay: NCI tumour cell line growth inhibition, 48 h

{"Molecule": "CN(Cc1cccc(F)c1)c1ccc(CO)c(Cl)c1", "Operator": ">", "TGI / µM": 100}
{"Molecule": "COc1cccc(CSCC(=O)O)c1", "Operator": ">", "TGI / µM": 100}
{"Molecule": "C/C(=C\\c1ccccc1)C(=O)NCc1ccc(C(=O)NCCc2ccccc2)cc1", "Operator": "=", "TGI / µM": 98.8}
{"Molecule": "CNC(=S)N/N=C(\\C(=N/NC(=S)NC)c1ccccn1)c1ccccn1", "Operator": ">", "TGI / µM": 83.2}
{"Molecule": "CN(CCO)CCCC1COc2ccccc2O1 (stereo not given)", "Operator": ">", "TGI / µM": 100}
{"Molecule": "Cc1cc(S(=O)(=O)/N=C/N(C)C)c(SC(=O)c2ccc(Cl)cc2)cc1Cl", "Operator": ">", "TGI / µM": 100}
{"Molecule": "COC(=O)C1=C(OC(=O)/C=C/c2ccccc2)C(C(=O)OC)[C@@]2(O)[C@@H](C(=O)OC)[C@H](C)C[C@@H]1[C@@H]2C(=O)OC (stereo not given in full)", "Operator": "=", "TGI / µM": 79.9}
{"Molecule": "COc1cccc(-c2ccc3c(c2)C2CCN(Cc4ccccc4)C3C2)c1 (stereo not given)", "Operator": "=", "TGI / µM": 20.9}
{"Molecule": "O=[N+]([O-])c1ccc(C2CC(c3ccccc3Cl)=Nc3ccccc3S2=O)cc1 (stereo not given)", "Operator": "=", "TGI / µM": 15.3}
{"Molecule": "O=C(CC1(O)C(=O)Nc2ccc(Br)cc21)c1ccc(Cl)cc1Cl (stereo not given)", "Operator": ">", "TGI / µM": 100}
